Entries and their measured Kd follow.
Target: T1, GFP-9S library array, motif 4 ND N98V;D124H (synthetic construct, N98V;D124H)
T1 chain: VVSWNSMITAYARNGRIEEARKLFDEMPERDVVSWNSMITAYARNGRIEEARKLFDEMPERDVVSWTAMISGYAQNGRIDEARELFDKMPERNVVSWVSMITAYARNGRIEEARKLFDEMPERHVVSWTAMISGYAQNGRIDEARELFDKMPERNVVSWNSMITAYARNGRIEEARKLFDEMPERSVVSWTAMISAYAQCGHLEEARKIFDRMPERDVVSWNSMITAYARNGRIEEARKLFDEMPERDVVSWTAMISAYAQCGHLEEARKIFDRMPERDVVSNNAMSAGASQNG
Assay: high-throughput RNA pulldown from lysate on Ni-NTA beads; HRP: 50 mM Tris pH 8, 150 mM NaCl, 1 mM beta-mercaptoethanol, 50 ug/ml BSA, 3 ug/ml yeast RNA, 0.5% heparin; ITC and FP: Tris pH 8, 200 mM KCl, 5% glycerol; MST: 50 mM Tris pH 8, 200 mM NaCl, 1 mM DTT, BSA, heparin, 0.05% Tween 20
Conditions: tags: N-terminal His-eGFP; label: 5' IRDye 800CW
test readout: Kd (nM)

{"binder": "AUUAUACGUGA (ssRNA) [IR-rpoA-U]", "unit name": "nM", "numeric result": 219}
{"binder": "AUUAAACGUGA (ssRNA) [IR-rpoA-A]", "unit name": "nM", "numeric result": 209}
